Provenance of the data: patent US8524737B2

# assaySystem: human recombinant ROCK II (Homo sapiens, UniProt O75116)
# Construct: recombinant human ROCK-II residues 11-552; His6 (N)
# Sequence (O75116 11-552): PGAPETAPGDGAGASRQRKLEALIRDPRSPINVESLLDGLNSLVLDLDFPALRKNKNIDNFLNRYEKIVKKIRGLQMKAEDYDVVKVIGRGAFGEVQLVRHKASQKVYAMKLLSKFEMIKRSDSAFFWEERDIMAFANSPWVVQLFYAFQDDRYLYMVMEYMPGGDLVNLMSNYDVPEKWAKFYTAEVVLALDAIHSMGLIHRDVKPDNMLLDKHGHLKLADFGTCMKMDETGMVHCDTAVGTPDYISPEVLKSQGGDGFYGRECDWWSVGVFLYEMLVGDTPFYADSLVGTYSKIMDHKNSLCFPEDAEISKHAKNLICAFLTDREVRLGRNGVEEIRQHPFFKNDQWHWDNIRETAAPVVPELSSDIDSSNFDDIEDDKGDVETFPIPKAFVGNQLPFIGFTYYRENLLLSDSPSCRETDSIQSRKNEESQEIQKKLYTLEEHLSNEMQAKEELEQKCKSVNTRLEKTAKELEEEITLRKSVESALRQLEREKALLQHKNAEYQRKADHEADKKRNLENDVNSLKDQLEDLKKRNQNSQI
# experimentNotes: Determination of Rho Kinase Inhibition (ROCK II, Caliper peptide phosphorylation assay)
# conditionNotes: tested in the form (salt or free base) obtained in the examples
# Description: Determination of Rho Kinase Inhibition To measure Rho-kinase inhibition, IC50 values were determined according to the following protocol: Active human recombinant ROCK II (N-terminal His6-tagged recombinant human ROCK-II residues 11-552) was purchased from Millipore GmbH, Schwalbach, Germany. […] Phosphorylation of the substrate peptide was then detected on a Caliper 3000 instrument essentially as described by Pommereau et al (J. Biomol. Screening 2004, 9(5), 409-416). […]
propertyName: IC50

N[C@H]1C[C@H]2CSC[C@@H](C1)[C@@H]2Oc1cc2cc[nH]c(=O)c2cc1Cl | 10 to 100 nM

Recall and state the measured IC50 for NC1C2CC3CC1CC(Oc1cc4cc[nH]c(=O)c4cc1Cl)(C3)C2 (single isomer, unassigned) .
10 to 100 nM

Provide measured IC50 value, entry: O=c1[nH]ccc2cc(O[C@H]3CC[C@@]4(CCCN4)CC3)c(Cl)cc12
10 to 100 nM

Give the reported value of IC50 for this record: N[C@]12CC3CC(C1)[C@@H](Oc1cc4cc[nH]c(=O)c4cc1Cl)C(C3)C2 (single isomer, unassigned)
≤ 10 nM
